IC50 values by entry
- Tested on: 463943-066-T-J2-PDC complex spheroid growth
- experimental details: Anticancer human tumor 463943-066-T-J2-PDC patient-derived colon adenocarcinoma cell line growth inhibition [Asc]
- condition context: curve of compound

// solved cases for IC50 follow
{"molecule": "NC1CCC(NC2CC2c2ccccc2)CC1 (stereo not given)", "IC50": "> 0.1 µM"}
{"molecule": "NC(=O)C(=Cn1cnc(-c2cc(C(F)(F)F)cc(C(F)(F)F)c2)n1)c1cncnc1", "IC50": "> 0.3 µM"}
{"molecule": "C=CC(=O)N1CCN(c2nc(=O)n(-c3c(C)ccnc3C(C)C)c3nc(-c4c(O)cccc4F)c(F)cc23)C(C)C1 (stereo not given)", "IC50": "> 10 µM"}
{"molecule": "C#Cc1c(F)ccc2cc(O)cc(-c3ncc4c(N5CC6CCC(C5)N6)nc(OCC56CCCN5CC(F)C6)nc4c3F)c12 (stereo not given)", "IC50": "> 10 µM"}
{"molecule": "CCN1CCN(Cc2ccc(Nc3ncc(F)c(-c4cc(F)c5nc(C)n(C(C)C)c5c4)n3)nc2)CC1", "IC50": "> 1 µM"}

QUERY: Value lookup for IC50; key = CCN1C(C(=O)NC23CCC(C(=O)O)(CC2)CC3)C(c2cccc(Cl)c2F)C2(C(=O)Nc3cc(Cl)ccc32)C12CCCCC2 (stereo not given)
RESULT: > 3 µM

QUERY: Also need `Cn1ncnc1[C@H]1c2n[nH]c(=O)c3cc(F)cc(c23)N[C@@H]1c1ccc(F)cc1` , thanks.
RESULT: > 0.1 µM

QUERY: Also need CNC(C)C(=O)NC1CN(S(=O)(=O)c2cccc(S(=O)(=O)N3CCC4CCC(C(=O)NC(c5ccccc5)c5ccccc5)N4C(=O)C(NC(=O)C(C)NC)C3)c2)CCC2CCC(C(=O)NC(c3ccccc3)c3ccccc3)N2C1=O (stereo not given) , thanks.
RESULT: > 1 µM

QUERY: Also need `O=C(c1cc(Cc2n[nH]c(=O)c3ccccc23)ccc1F)N1CCN(C(=O)C2CC2)CC1` , thanks.
RESULT: > 10 µM

QUERY: Also need Cc1nc(N2CCC3(CC2)COC(C)C3N)c(CO)nc1Sc1ccnc(N)c1Cl (stereo not given) , thanks.
RESULT: > 3 µM

====

- Test system: 463943-066-T-J2-PDC complex spheroid growth
- experimental details: Anticancer human tumor 463943-066-T-J2-PDC cell line growth inhibition [Asc];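 note: compound exposure lasted 7 days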;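 for viability, T/C: 100% = DMSO vehicle control wells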
- condition context: second compound 0.03 µM; first compound 0.1 µM; stronger effect = lower value
measured quantity: viability, T/C (%)
Enter your answer as a number in %; do not include the unit.

// solved cases for viability, T/C follow
{"compound": "O=C(c1ccc(F)c(F)c1Nc1ccc(I)cc1F)N1CC(O)([C@@H]2CCCCN2)C1 + CCN1C(C(=O)NC23CCC(C(=O)O)(CC2)CC3)C(c2cccc(Cl)c2F)C2(C(=O)Nc3cc(Cl)ccc32)C12CCCCC2", "measured quantity": "viability, T/C", "recorded result": 56.2}
{"compound": "C=CC(=O)N1CCN(c2nc(=O)n(-c3c(C)ccnc3C(C)C)c3nc(-c4c(O)cccc4F)c(F)cc23)C(C)C1 (stereo not given) + CCN1C(C(=O)NC23CCC(C(=O)O)(CC2)CC3)C(c2cccc(Cl)c2F)C2(C(=O)Nc3cc(Cl)ccc32)C12CCCCC2", "measured quantity": "viability, T/C", "recorded result": 96.8}
{"compound": "CNC(C)C(=O)NC1CN(S(=O)(=O)c2cccc(S(=O)(=O)N3CCC4CCC(C(=O)NC(c5ccccc5)c5ccccc5)N4C(=O)C(NC(=O)C(C)NC)C3)c2)CCC2CCC(C(=O)NC(c3ccccc3)c3ccccc3)N2C1=O (stereo not given) + CCN1C(C(=O)NC23CCC(C(=O)O)(CC2)CC3)C(c2cccc(Cl)c2F)C2(C(=O)Nc3cc(Cl)ccc32)C12CCCCC2", "measured quantity": "viability, T/C", "recorded result": 93.2}
{"compound": "COc1c(OCCCN2CCOCC2)ccc2c3n(c(=NC(=O)c4cnc(N)nc4)nc12)CCN3 + CCN1C(C(=O)NC23CCC(C(=O)O)(CC2)CC3)C(c2cccc(Cl)c2F)C2(C(=O)Nc3cc(Cl)ccc32)C12CCCCC2", "measured quantity": "viability, T/C", "recorded result": 61.2}

Query compound follows.
QUERY: Value lookup for viability, T/C; key = O=C(c1cc(Cc2n[nH]c(=O)c3ccccc23)ccc1F)N1CCN(C(=O)C2CC2)CC1 + CCN1C(C(=O)NC23CCC(C(=O)O)(CC2)CC3)C(c2cccc(Cl)c2F)C2(C(=O)Nc3cc(Cl)ccc32)C12CCCCC2
RESULT: 88.8

====

- Test system: 463943-066-T-J2-PDC complex spheroid growth
- experimental details: Anticancer human tumor 463943-066-T-J2-PDC cell line growth inhibition [Asc];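 note: compound exposure lasted 7 days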;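 for viability, T/C: 100% = DMSO vehicle control wells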
- condition context: second compound 0.316 µM; first compound 0.01 µM; stronger effect = lower value
- Source text: Multicellular complex tumor spheroid response to apoptosis pathway targeting inhibitors Alrizomadlin, Pelcitoclax, and Dasminapant in combination with a variety of drugs and investigational agents in selected tumor cell lines […] Compounds. […] If the clinical Cmax for an agent had not been determined, the highest concentration tested was 10 microM. […]
Classify: satisfied when viability, T/C is strictly less than 90%; not satisfied when viability, T/C is not.

// known answers, use as guide
{"molecule": "Cn1ncnc1[C@H]1c2n[nH]c(=O)c3cc(F)cc(c23)N[C@@H]1c1ccc(F)cc1 + CNC(C)C(=O)NC1CN(S(=O)(=O)c2cccc(S(=O)(=O)N3CCC4CCC(C(=O)NC(c5ccccc5)c5ccccc5)N4C(=O)C(NC(=O)C(C)NC)C3)c2)CCC2CCC(C(=O)NC(c3ccccc3)c3ccccc3)N2C1=O", "label class": "not satisfied"}
{"molecule": "Cn1ncnc1[C@H]1c2n[nH]c(=O)c3cc(F)cc(c23)N[C@@H]1c1ccc(F)cc1 + Cc1c(S(C)(=O)=O)c(-c2cc(F)cc(N3CCN(c4ccc(NS(=O)(=O)c5ccc(NC(CCN6CCC(C(=O)OCCCP(=O)(O)O)CC6)CSc6ccccc6)c(S(=O)(=O)C(F)(F)F)c5)cc4)CC3)c2)c(-c2ccc(Cl)cc2)n1C(C)C", "label class": "satisfied"}

QUERY: Quick check: does NC1CCC(NC2CC2c2ccccc2)CC1 (stereo not drawn) + Cc1c(S(C)(=O)=O)c(-c2cc(F)cc(N3CCN(c4ccc(NS(=O)(=O)c5ccc(NC(CCN6CCC(C(=O)OCCCP(=O)(O)O)CC6)CSc6ccccc6)c(S(=O)(=O)C(F)(F)F)c5)cc4)CC3)c2)c(-c2ccc(Cl)cc2)n1C(C)C have viability, T/C under 90%?
RESULT: satisfied

QUERY: Also need O=C(c1ccc(F)c(F)c1Nc1ccc(I)cc1F)N1CC(O)([C@@H]2CCCCN2)C1 + Cc1c(S(C)(=O)=O)c(-c2cc(F)cc(N3CCN(c4ccc(NS(=O)(=O)c5ccc(NC(CCN6CCC(C(=O)OCCCP(=O)(O)O)CC6)CSc6ccccc6)c(S(=O)(=O)C(F)(F)F)c5)cc4)CC3)c2)c(-c2ccc(Cl)cc2)n1C(C)C , thanks.
RESULT: satisfied

QUERY: Also need O=C(c1ccc(F)c(F)c1Nc1ccc(I)cc1F)N1CC(O)([C@@H]2CCCCN2)C1 + CNC(C)C(=O)NC1CN(S(=O)(=O)c2cccc(S(=O)(=O)N3CCC4CCC(C(=O)NC(c5ccccc5)c5ccccc5)N4C(=O)C(NC(=O)C(C)NC)C3)c2)CCC2CCC(C(=O)NC(c3ccccc3)c3ccccc3)N2C1=O , thanks.
RESULT: satisfied

====

- System: 463943-066-T-J2-PDC complex spheroid growth
- experimental details: Anticancer human tumor 463943-066-T-J2-PDC cell line growth inhibition [Asc];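 note: compound exposure lasted 7 days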;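 for viability, T/C: 100% = DMSO vehicle control wells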
- condition context: second compound 0.03 µM; first compound 10 µM; stronger effect = lower value
viability, T/C values by entry
Enter your answer as a number in %; do not include the unit.

// solved cases for viability, T/C follow
{"compound": "O=C(c1cc(Cc2n[nH]c(=O)c3ccccc23)ccc1F)N1CCN(C(=O)C2CC2)CC1 + CCN1C(C(=O)NC23CCC(C(=O)O)(CC2)CC3)C(c2cccc(Cl)c2F)C2(C(=O)Nc3cc(Cl)ccc32)C12CCCCC2", "measured quantity": "viability, T/C", "recorded result": 89.9}
{"compound": "C=CC(=O)N1CCN(c2nc(=O)n(-c3c(C)ccnc3C(C)C)c3nc(-c4c(O)cccc4F)c(F)cc23)C(C)C1 (centres undefined) + CCN1C(C(=O)NC23CCC(C(=O)O)(CC2)CC3)C(c2cccc(Cl)c2F)C2(C(=O)Nc3cc(Cl)ccc32)C12CCCCC2", "measured quantity": "viability, T/C", "recorded result": 88.4}
{"compound": "C=C(F)C(=O)N1CCN(c2nc(OCC3CCCN3C)nc3c2CCN(c2cccc4cccc(Cl)c24)C3)CC1CC#N (centres undefined) + CCN1C(C(=O)NC23CCC(C(=O)O)(CC2)CC3)C(c2cccc(Cl)c2F)C2(C(=O)Nc3cc(Cl)ccc32)C12CCCCC2", "measured quantity": "viability, T/C", "recorded result": 20.3}

Query compound follows.
QUERY: Value lookup for viability, T/C; key = C#Cc1c(F)ccc2cc(O)cc(-c3ncc4c(N5CC6CCC(C5)N6)nc(OCC56CCCN5CC(F)C6)nc4c3F)c12 (centres undefined) + CCN1C(C(=O)NC23CCC(C(=O)O)(CC2)CC3)C(c2cccc(Cl)c2F)C2(C(=O)Nc3cc(Cl)ccc32)C12CCCCC2
RESULT: 82.5
